Recorded values, source PubChem BioAssay (NCI).

Test system: DU-145 prostate
Experiment notes: NCI-60 one-dose screen, 48 h
Settings: 10 µM unless noted
This is part of a sample that, as a whole, favours compounds with a hit. Of some 83,000 tested, about 20% had one in any assay. Active and inactive are the calls of the source. The calls were made as follows: active = growth percent below 10; inactive = the rest.
Just give me one of these, please: active, inactive

• Cc1ncc(C(=O)Nc2ccc(CN3CCN(C)CC3)c(C(F)(F)F)c2)cc1C#Cc1c(N)ncc2ccc(C#N)cc12 = inactive

Recorded call for `COc1cc(OC)cc(C(=O)Nc2cc(-c3cccnc3)nc(NCCCN3CCOCC3)n2)c1` ?
inactive

Please indicate how the test categorized `COc1ccc2nc3ccccc3c(NCCNCCO)c2c1` .
active

Recorded call for `CN(C)c1ccc(N=Nc2ccc3ccccc3c2)cc1` ?
inactive

Check the results log: what was the call for `N#C/C(C(=O)c1ccccc1)=C1/C(=O)Nc2ccccc21` ?
inactive

How was `CC(C)=CC/C=C(/C)[C@H]1CC[C@]2(C)[C@@H]1CC[C@@H]1[C@@]3(C)CC/C(=N/O)C(C)(C)[C@@H]3CC[C@]12C` classified in this test?
inactive

Answer briefly: the call reported for `O=C1Nc2ccccc2/C1=C/C(=O)c1ccc(N2CCOCC2)cc1` in this assay.
inactive

Name the outcome recorded for `O=C(Oc1ccc(Cl)cc1[N+](=O)[O-])Oc1ccc(Cl)cc1[N+](=O)[O-]` in the assay.
inactive

Please indicate how the test categorized `CC(C)[C@H]1CCC2=C3CC[C@]45OC(=O)[C@@]6(CCC(C)(C)C[C@H]64)CC[C@@]5(C)[C@]3(C)CC[C@@]21C` .
inactive

For `CCCCOC(=O)c1cccc([N+](=O)[O-])c1` , which call appears in the assay record?
inactive

Would you mind telling me which call this test gave COc1ccc(C2CC(c3ccc4ccccc4c3)=NN2c2nc(O)c(C3=c4cc(OC)ccc4=NC3=O)s2)cc1 (stereo not given) ?
active

Hello, I am checking results. What call was entered for CCOC(=O)c1nn(C2CCCCO2)c2ccc(NC(=O)CN3CCCC3)cc12 (stereo not given) ?
inactive

Short answer needed: outcome of this test for NC(=O)CC1C=CCC1 (stereo not given) ?
inactive

Name the outcome recorded for `CCN(CC)CCCNCc1cc(-c2ccccc2)nc2ccccc12` in the assay.
inactive

Status in this test for `CC1(C)CC[C@]2(C(=O)O)CC[C@]3(C)[C@H](CC[C@@H]4[C@@]5(C)CCC(=O)C(C)(C)[C@@H]5CC[C@]43C)[C@H]2[C@H]1OC(=O)C(F)(F)F` ?
active

====

Test system: ACHN renal
Experiment notes: NCI-60 one-dose screen, 48 h
Settings: 10 µM unless noted
The panel holds about 83,000 compounds, 20% with a hit somewhere; the sample as a whole holds those more often. Activity calls are given as the source filed them. The calls were made as follows: active = growth percent below 10; inactive = the rest.
Could you please pick one outcome from this set? active, inactive

# count of solved cases: 3
- C[C@H]1[C@H](C)CC[C@]2(C(=O)O)CC[C@]3(C)C(=CC[C@@H]4[C@@]5(C)C/C(=C/c6cccnc6)[C@H](O)C(C)(C)[C@@H]5CC[C@]43C)[C@H]12: active
- CCc1cccc(Cl)c1: inactive
- Cn1cc(-c2noc(-c3cn(C)c4ncc(F)cc34)n2)c2ccccc21: inactive

Record request — test call for `c1coc2occoc=2o1`
inactive

For CCN(CC)c1ccc2cc(NC(=O)OCCNC(=O)CCNC(=O)[C@H](CC(C)C)NC(=O)C(C)(C)NC(=O)C(C)(C)NC(=O)[C@H](CC(C)C)NC(=O)CCNC(=O)C(C)(C)NC(=O)[C@H](CC(C)C)NC(=O)CCNC(=O)[C@@](C)(CC)NC(=O)[C@H](C)NC(=O)CCNC(=O)C(C)(C)NC(=O)[C@H](C)NC(=O)[C@@H]3CCCN3C(=O)[C@@](C)(CC)NC(=O)[C@H](Cc3ccccc3)NC(=O)C3CCCN3C(=O)C(C)(C)NC(=O)C3CCCN3C(=O)C(C)(C)NC(C)=O)c(=O)oc2c1 (stereo not given in full) , what call appears in the results of this test?
active

====

Tested on: MOLT-4 leukemia
Experiment notes: NCI-60 one-dose screen, 48 h
Settings: 10 µM unless noted
This is part of a sample that, as a whole, favours compounds with a hit. Of some 83,000 tested, about 20% had one in any assay. The source made the active and inactive calls. How the source made its calls: active means growth percent below 10; inactive means the rest.
Entry note: the call must match one of true (1) = active, false (0) = inactive

Worked set:
* COc1cc(C(=O)/C=C/c2c(-c3ccc(F)cc3)nc3sccn23)cc(OC)c1OC | false (0)
* c1coc2occoc=2o1 | false (0)
* CCOC(=O)c1sc2nc(-c3cc(OC)c(OC)c(OC)c3)nc(N3CCOCC3)c2c1C | false (0)
* CCCCCn1c(C)cc(/C=C\c2ccc3cc(C)ccc3[n+]2C)c1C | true (1)
* O=C(O)c1cn(C2CC2)c2cc(N3CCN(Cc4c(O)ccc5ccccc45)CC3)c(F)cc2c1=O | false (0)

Could you kindly confirm the outcome this assay logged for `NS(=O)(=O)c1ccc(CCN2C(=O)/C(=C\c3ccccc3)C=C2c2ccc(Cl)cc2)cc1` ?
false (0)

Check the results log: what was the call for `O=C(N=c1n(-c2ccccc2)nc2n1CCN2C1=NCCN1)c1ccc(Cl)cc1` ?
false (0)

Can you look up the reported call for `CC(C)(C)OC(=O)N1C=C/C(=C\Cn2cc(-c3ccccc3)nn2)CC1` for me?
false (0)

Called result for CCCCN(CC)CC(CC)Nc1cc(OC)cc2cccnc12 (stereo unspecified)
false (0)

Test call, this molecule: `O=C(NCCCNC(=O)OCc1ccc2cccc(O)c2n1)OCc1ccc2cccc(O)c2n1`
false (0)

Record request — test call for `O=C1CN(Cc2ccc(C(=O)NO)cc2)C(=O)[C@@H](Cc2ccccc2)N1`
false (0)

Please let me know the test result on file for CC/C=C(\C)C(CCC)(CN=O)C(=O)OCC (stereo unspecified) .
false (0)

GET /call?item= `COC(=O)c1cc(O)c2c(c1C(=O)OC)C[C@H]1[C@@H]3CC=C4C[C@@H](O)CC[C@]4(C)[C@H]3CC[C@]21C` returns the recorded outcome of this test.
false (0)

What outcome does the record of this test show for `N#C/C(=C(/O)CCCO)c1nc2ccccc2c(=O)[nH]1` ?
false (0)

Recorded test outcome, item `CNC(=O)c1cc(Oc2ccc3nc(NC(=O)c4ccc5ncccc5c4)sc3c2)ccn1`
false (0)

Which outcome did this test record for the molecule `CC1(C)NCCC[C@]2(C)[C@H]3C=CC4=C5C[C@](C)(CO)CC[C@]5(C)CC[C@@]4(C)[C@]3(C)CC[C@@H]12` ?
true (1)

Call for entry `Cc1cccc(/C=C2\N=C(c3ccccc3)N(c3ccc(S(N)(=O)=O)cc3)C2=O)c1` :
false (0)

Returns: the outcome recorded for `O=C(O)c1cccc(CN2CCN(c3cc4c(cc3F)c(=O)c(C(=O)O)cn4C3CC3)CC2)c1O` in this assay.
false (0)

Just curious, what result did `COc1ccc2c(c1)c(-c1noc(-c3cn(C)c4ncc(F)cc34)n1)cn2C` get here?
false (0)

State the result this test recorded for C=CC1=C(C)C2=NC1=CC1=NC(=CC3=C(C)C4=C(O)C(C(=O)O)C(=C5NC(=C2)C(C)C5CCC(=O)O)C4=N3)C(CC)=C1C (stereo unspecified) .
false (0)

Recorded test call requested for `C[n+]1c2ccccc2nc2c(N)cc(N)cc21`
false (0)

====

Test system: MDA-MB-231 breast
Experiment notes: NCI-60 one-dose screen, 48 h
Settings: 10 µM unless noted
This is part of a sample that, as a whole, favours compounds with a hit. Of some 83,000 tested, about 20% had one in any assay. Activity calls are given as the source filed them. How the source made its calls: active means growth percent below 10; inactive means the rest.
Log the outcome using a class from active, inactive

Would you please look over these solved cases?
* CCCCC1COc2cccc3c2N1C=C/C3=C\C(=O)n1ccc2ccccc21 (configuration not stated) | inactive
* O=C(O)CSCc1nnc2n(Cc3ccccc3)c(=O)c3c4c(sc3n12)CCCC4 | inactive
* CCCCCCCCCCCCCC[n+]1cccc(C(N)=O)c1 | active
* CSc1nc2c(c(=O)n1C)C1(C(=O)N(Cc3ccccc3)c3ccccc31)c1c(nc(SC)n(C)c1=O)N2 | inactive
* C[n+]1c2ccccc2nc2c(N)cc(N)cc21 | inactive
* CCN(CC)c1cc(N)c(Cc2c(N)cc(N(CC)CC)cc2Cl)c(Cl)c1 | inactive
* CCn1cc(-c2[nH]c(=S)ncc2-c2ccc(Cl)cc2)c(-c2ccc(Br)cc2)n1 | inactive
* CCCC(NC(=O)OCc1ccccc1)C(=O)O (configuration not stated) | inactive
* CCN(CC)c1ccc(/C=C/C=C2\NC(=O)NC2=O)cc1 | inactive
* COc1ccc(-c2cc(-c3ccc(OC)c(OC)c3)nc(SCCCCCC(=O)NO)n2)cc1 | inactive

Assay outcome for `CO[C@H]1CC[C@@]2(C)C(=CC[C@H]3[C@@H]4C[C@H](O)C[C@@]4(C)CC[C@@H]32)C1` : what was it?
inactive

Record lookup: outcome of this test for `C=C(C)[C@@H]1CC[C@]2(COCCCN)CC[C@]3(C)[C@H](CC[C@@H]4[C@@](C)(CCCNCCCN)[C@H](C(=C)C)CC[C@]43C)[C@@H]12` ?
active

Could you please tell me the result logged for `CSc1nc(N)c(N=Nc2ccc(S(=O)(=O)Nc3nnc(C)s3)cc2)c(=O)[nH]1` in this assay?
inactive

# fetch the recorded call for `Cc1cc(C)c(S(=O)(=O)/N=c2/n(-c3ccccc3)nc3n2CCN3C2=NCCN2)c(C)c1` here
inactive

Hey, what did the test say about `Nc1nc(Cl)c2ncn(Cc3cc4c(cc3I)OCO4)c2n1` ?
inactive

What was the test verdict on `CCOC(=O)/C(C#N)=C(\C)CCc1ccccc1` ?
inactive

Can you look up the reported call for `CC(C)(C)c1cc(C(=O)N2CCC(C(=O)NCCN)CC2)cc(C(C)(C)C)c1` for me?
inactive
